Reference source: patent EP4782449A1

Please go through the items and note down their pIC50.
- target or system: SARM1 (Homo sapiens)
- Construct: inventors produced full-length SARM1 for NAD enzyme activity experiments, and used it for screening; His (C); made in house; host or cells: HEK293 cells, transient transfection; supernatant of digitonin lysate, no further purification described
- Sequence (Q6SZW1 28-724, species assumed): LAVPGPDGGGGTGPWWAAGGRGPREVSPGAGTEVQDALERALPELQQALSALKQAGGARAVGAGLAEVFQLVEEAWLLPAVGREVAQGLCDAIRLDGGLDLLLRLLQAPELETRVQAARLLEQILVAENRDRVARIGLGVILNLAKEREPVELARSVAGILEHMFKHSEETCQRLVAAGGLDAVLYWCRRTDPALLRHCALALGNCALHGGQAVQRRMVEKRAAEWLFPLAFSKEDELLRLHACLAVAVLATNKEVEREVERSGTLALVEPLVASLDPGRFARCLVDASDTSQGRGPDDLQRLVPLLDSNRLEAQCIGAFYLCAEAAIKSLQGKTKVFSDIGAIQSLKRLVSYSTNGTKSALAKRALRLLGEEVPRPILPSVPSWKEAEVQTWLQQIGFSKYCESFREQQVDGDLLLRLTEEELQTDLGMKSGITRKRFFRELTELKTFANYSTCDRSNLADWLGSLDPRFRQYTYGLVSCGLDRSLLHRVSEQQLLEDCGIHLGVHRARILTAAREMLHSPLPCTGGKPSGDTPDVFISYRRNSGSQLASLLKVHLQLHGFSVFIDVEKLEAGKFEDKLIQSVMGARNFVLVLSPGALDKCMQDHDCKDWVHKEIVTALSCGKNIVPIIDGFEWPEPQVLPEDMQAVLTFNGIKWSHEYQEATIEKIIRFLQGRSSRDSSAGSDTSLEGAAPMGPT
- assay: In vitro biochemical assay for inhibiting SARM1 enzyme activity (PC6 fluorescence, NADase)
- condition label: full-length SARM1 from transfected HEK293 cells; 50 µM NAD, 50 µM PC6, 50 µM NMN activator; room temperature, 30 minutes; read-out: IC50
pIC50: −log10 of the molar value.

*Q* Dear colleague, I am looking for the recorded pIC50 of the following compound: O=C(NCc1cc(F)c(F)c(F)c1)Nc1ccc2c(c1)COc1cnccc1-2 [Compound 67]
*A* > 7.00

*Q* Returns the measured pIC50 for the input compound. Input: [2H]C1([2H])Oc2cnccc2-c2ccc(N3CCC(Cc4ccc(F)cc4)C3=O)cc21 (stereo not shown) [Compound 146]
*A* > 7.00

*Q* What value of measured pIC50 is listed for O=C(CCc1ccc(Br)cc1)Nc1ccc2c(c1)COc1cnccc1-2 [Compound 22] ?
*A* 6.00 to 7.00

*Q* Give the measured pIC50 of O=C1C(Cc2ccc(F)cc2)CCN1c1cc2c(cn1)-c1ccncc1OC2 (stereo not shown) [Compound 128] .
*A* > 7.00
